Reference source: patent US20240197666A1

tested on: A549 cell line; test: Proliferation of A549 (CellTiter Glo); assay type: cell-based; details: Homo sapiens, A549, 96 h, read-out: IC50 μM (A549 Cell Line)
Reported IC50 values follow for various compounds
assay-readout: IC50

- compound: "CC1=C[C@H]2[C@@]3(O)[C@H](C)C[C@]4(OC(=O)[C@H](N)CCCCCCc5ccccc5)[C@H]([C@@H]3C=C(CO)C[C@]2(O)C1=O)C4(C)C"
  study-target: "A549 cell line"
  observed-result: "0.01 to 0.03 µM"
- compound: "CC1=C[C@H]2[C@@]3(O)[C@H](C)C[C@]4(OC(=O)[C@H](N)C(C)(C)c5ccc(C(F)(F)F)cc5)[C@H]([C@@H]3C=C(CO)C[C@]2(O)C1=O)C4(C)C"
  study-target: "A549 cell line"
  observed-result: "0.2 to 0.6 µM"
- compound: "CC1=C[C@H]2[C@@]3(O)[C@H](C)C[C@]4(OC(=O)[C@@H](N)CCCCCCc5ccc(C(F)F)cc5)[C@H]([C@@H]3C=C(CO)C[C@]2(O)C1=O)C4(C)C"
  study-target: "A549 cell line"
  observed-result: "0.1 to 0.2 µM"
- compound: "CC1=C[C@H]2[C@@]3(O)[C@H](C)C[C@]4(OC(=O)[C@@H](N)CCc5ccccc5)[C@H]([C@@H]3C=C(CO)C[C@]2(O)C1=O)C4(C)C"
  study-target: "A549 cell line"
  observed-result: "0.1 to 0.2 µM"
- compound: "CC1=C[C@H]2[C@@]3(O)[C@H](C)C[C@]4(OC(=O)[C@H](N)CC5CCCCC5)[C@H]([C@@H]3C=C(CO)C[C@]2(O)C1=O)C4(C)C"
  study-target: "A549 cell line"
  observed-result: "0.2 to 0.6 µM"
- compound: "CC1=C[C@H]2[C@@]3(O)[C@H](C)C[C@]4(OC(=O)CCc5ccccn5)[C@H]([C@@H]3C=C(CO)C[C@]2(O)C1=O)C4(C)C"
  study-target: "A549 cell line"
  observed-result: "0.6 to 1 µM"
- compound: "CC1=C[C@H]2[C@@]3(O)[C@H](C)C[C@]4(OC(=O)CCC5CCCC5)[C@H]([C@@H]3C=C(CO)C[C@]2(O)C1=O)C4(C)C"
  study-target: "A549 cell line"
  observed-result: "0.03 to 0.06 µM"
- compound: "CC1=C[C@H]2[C@@]3(O)[C@H](C)C[C@]4(OC(=O)CCc5ccc(C(F)(F)F)cc5)[C@H]([C@@H]3C=C(CO)C[C@]2(O)C1=O)C4(C)C"
  study-target: "A549 cell line"
  observed-result: "0.01 to 0.03 µM"
- compound: "CC1=C[C@H]2[C@@]3(O)[C@H](C)C[C@]4(OC(=O)[C@H](O)Cc5ccccc5)[C@H]([C@@H]3C=C(CO)C[C@]2(O)C1=O)C4(C)C"
  study-target: "A549 cell line"
  observed-result: "2 to 5 µM"
- compound: "CC1=C[C@H]2[C@@]3(O)[C@H](C)C[C@]4(OC(=O)[C@@H](N)CCC5CCCCC5)[C@H]([C@@H]3C=C(CO)C[C@]2(O)C1=O)C4(C)C"
  study-target: "A549 cell line"
  observed-result: "0.01 to 0.03 µM"
- compound: "CC1=C[C@H]2[C@@]3(O)[C@H](C)C[C@]4(O)[C@H]([C@@H]3C=C(CO)C[C@]2(O)C1=O)C4(C)C"
  study-target: "A549 cell line"
  observed-result: "> 30 µM"
- compound: "CC1=C[C@H]2[C@@]3(O)[C@H](C)C[C@]4(OC(=O)CC5CC6(C5)CN(C(=O)OC(C)(C)C)C6)[C@H]([C@@H]3C=C(CO)C[C@]2(O)C1=O)C4(C)C"
  study-target: "A549 cell line"
  observed-result: "0.03 to 0.06 µM"
- compound: "CC1=C[C@H]2[C@@]3(O)[C@H](C)C[C@]4(OC(=O)[C@@H](N)Cc5ccc(C(F)(F)F)cc5)[C@H]([C@@H]3C=C(CO)C[C@]2(O)C1=O)C4(C)C"
  study-target: "A549 cell line"
  observed-result: "0.06 to 0.1 µM"
- compound: "CC1=C[C@H]2[C@@]3(O)[C@H](C)C[C@]4(OC(=O)/C=C/c5ccc(C(F)(F)F)cc5)[C@H]([C@@H]3C=C(CO)C[C@]2(O)C1=O)C4(C)C"
  study-target: "A549 cell line"
  observed-result: "0.06 to 0.1 µM"
- compound: "CSCC[C@H](N)C(=O)O[C@@]12C[C@@H](C)[C@@]3(O)[C@@H](C=C(CO)C[C@]4(O)C(=O)C(C)=C[C@@H]34)[C@@H]1C2(C)C"
  study-target: "A549 cell line"
  observed-result: "5 to 10 µM"
- compound: "CC1=C[C@H]2[C@@]3(O)[C@H](C)C[C@]4(OC(=O)C(Cc5ccccc5)C(=O)O)[C@H]([C@@H]3C=C(CO)C[C@]2(O)C1=O)C4(C)C (stereo partly drawn)"
  study-target: "A549 cell line"
  observed-result: "1 to 2 µM"
- compound: "CC1=C[C@H]2[C@@]3(O)[C@H](C)C[C@]4(OC(=O)CCCc5ccccc5)[C@H]([C@@H]3C=C(CO)C[C@]2(O)C1=O)C4(C)C"
  study-target: "A549 cell line"
  observed-result: "0.01 to 0.03 µM"
- compound: "CC1=C[C@H]2[C@@]3(O)[C@H](C)C[C@]4(OC(=O)[C@H](CC5CCCCC5)N(C)C)[C@H]([C@@H]3C=C(CO)C[C@]2(O)C1=O)C4(C)C"
  study-target: "A549 cell line"
  observed-result: "0.6 to 1 µM"
- compound: "CC1=C[C@H]2[C@@]3(O)[C@H](C)C[C@]4(OC(=O)[C@@H](N)[C@]56C[C@H]7C[C@H](C[C@H](C7)C5)C6)[C@H]([C@@H]3C=C(CO)C[C@]2(O)C1=O)C4(C)C"
  study-target: "A549 cell line"
  observed-result: "0.001 to 0.01 µM"
- compound: "CC1=C[C@H]2[C@@]3(O)[C@H](C)C[C@]4(OC(=O)[C@H](N)CCCCCCc5ccc(C(F)(F)F)cc5)[C@H]([C@@H]3C=C(CO)C[C@]2(O)C1=O)C4(C)C"
  study-target: "A549 cell line"
  observed-result: "0.06 to 0.1 µM"
- compound: "CC1=C[C@H]2[C@@]3(O)[C@H](C)C[C@]4(OC(=O)[C@@H](N)CC5CCCC5)[C@H]([C@@H]3C=C(CO)C[C@]2(O)C1=O)C4(C)C"
  study-target: "A549 cell line"
  observed-result: "0.1 to 0.2 µM"
- compound: "CC1=C[C@H]2[C@@]3(O)[C@H](C)C[C@]4(OC(=O)CCc5c[nH]c6ncccc56)[C@H]([C@@H]3C=C(CO)C[C@]2(O)C1=O)C4(C)C"
  study-target: "A549 cell line"
  observed-result: "2 to 5 µM"
- compound: "CC1=C[C@H]2[C@@]3(O)[C@H](C)C[C@]4(OC(=O)[C@@H](N)CC(C)(C)C)[C@H]([C@@H]3C=C(CO)C[C@]2(O)C1=O)C4(C)C"
  study-target: "A549 cell line"
  observed-result: "0.2 to 0.6 µM"
- compound: "CC1=C[C@H]2[C@@]3(O)[C@H](C)C[C@]4(OC(=O)[C@@H](N)C5Cc6ccccc6C5)[C@H]([C@@H]3C=C(CO)C[C@]2(O)C1=O)C4(C)C"
  study-target: "A549 cell line"
  observed-result: "0.06 to 0.1 µM"
